These entries and their values trace back to the supplement of paper PMC13380429.

system: Caco-2; assay: cell viability relative to DMSO; higher = less toxic; settings: 72 h; 10 nM
OUTCOME_MEASURE: cell viability
Quote the value and follow it with the unit of measurement.

Exercise: Param item = CC[C@H](C)C(=O)O[C@H]1C[C@@H](C)C=C2C=C[C@H](C)[C@H](CC[C@@H]3C[C@@H](O)CC(=O)O3)[C@H]21 [lovastatin] ; retrieve measured cell viability.
Solution: 85.7%

Exercise: What about CNC(=O)N(C)N=O [nitrosodimethylurea] ?
Solution: 106%

Exercise: Same for CC(C)N(CCC(C(N)=O)(c1ccccc1)c1ccccn1)C(C)C (stereo not given) [disopyramide]
Solution: 104%

For each of the compounds below, note its cell viability.
1. O=C(O)/C=C/c1ccc(Cn2ccnc2)cc1 [ozagrel]
2. CC(=O)Nc1ccc(C(=O)Nc2ccccc2N)cc1 [tacedinaline]

Solution:
1. 101%
2. 95.2%
